// data source = the supplement of paper PMC4466140

# Assayed target: ScHse1
# Experimental details: SPOT peptide array binding signal intensity (averaged, normalized) (arbitrary units (background-subtracted, floor 0; scale differs between SH3 domains)); higher = stronger binding of the SH3 domain to the peptide
Measurement label: SPOT peptide array binding signal intensity
Respond numerically, and do not add a unit to the figure.

Use these answered entries as a reference point.
NNQRRKPLLLNIGDH    1820
SGVRLPAPPPPPRRG    169
AIPPPVPNRPGGTTN    8
VPPPMQPPPIESSNL    65
ANNQGPPNLPARDKS    42.5

# evaluate next
Give the reported value of SPOT peptide array binding signal intensity for this record: "KDKSRPPRPPPKPLH"
24
